Experiment: NCI Yeast Anticancer Drug Screen. Data for the bub3 strain (AID 167)
Details: S. cerevisiae bub3 mutant strain, at 50.0 µM (retest, dose inferred, filed as 5.0), active compounds read high
Procedure: Growth inhibition of yeast strains with defined genetic alterations is measured as a screen for potential anti-cancer activity. Selected strains with alterations in DNA damage repair or cell cycle control were exposed to compounds and growth inhibition was measured relative to vehicle treated controls. The strain used in this assay is bub3
About 79,000 compounds went through this panel and 15% of them were active in at least one assay; those are over-represented in the sample as a whole.
So I've got a bunch of compounds here, and I need their growth inhibition values.
One number for each entry, in %.

Examples from the recorded data:
CCCCC(=O)N/N=C(\C)[C@]1(O)Cc2c(O)c3c(c(O)c2[C@@H](OC2CC(N)C(O)C(C)O2)C1)C(=O)c1c(OC)cccc1C3=O (stereo not given in full)
98
CCOC(=O)C(C(=O)OCC)c1ccc([N+](=O)[O-])o1
94

Okay, here is my list. What is growth inhibition for each of these?
1. CCCCNC(=S)N/N=C/c1cccc(C)n1
2. CC[C@@]1(O)C[C@H](OC2CC(N(C)C)C(OC3CC(O)C(OC4CCC(=O)C(C)O4)C(C)O3)C(C)O2)c2c(cc3c(c2O)C(=O)c2c(O)cccc2C3=O)[C@H]1C(=O)OC (stereo not given in full)
3. CC1=C(C#N)C(=O)OC1(C)C(CC(=O)c1ccccc1)c1ccccc1 (stereo not given)
4. CC(C)OC(=O)Oc1c(Cl)c(Cl)c(Cl)c(Cl)c1Cl
5. CCCCCCCC[N+](C)(CCCCCCCC)CCCCCCCC
6. C(=C\[n+]1ccc2ccccc2c1)/c1ccccc1
7. CC1SC2(C(=O)Nc3ccc([N+](=O)[O-])cc32)N(c2ccc(Cl)cc2)C1=O (stereo not given)

Reply text:
1. 97
2. 98
3. 11
4. 99
5. 96
6. 27
7. 98

Memo: `CC(=O)[C@H]1CC[C@H]2[C@@H]3CC[C@H]4C[C@@H](N5CCOCC5)CC[C@]4(C)[C@H]3CC[C@]12C` , reported growth inhibition: 81

* * *

So I've got a bunch of compounds here, and I need their growth inhibition values.
Assay: NCI Yeast Anticancer Drug Screen. Data for the bub3 strain (AID 167)
Conditions: S. cerevisiae bub3 mutant strain, at 50.0 µM, active compounds read high
This is part of a sample that, as a whole, favours compounds with a hit. Of some 79,000 tested, about 15% had one in any assay. *1 amine or outer side, *2 acyl side, *3 side chain or, on linkers, in order; H or OH if unused. Where a SMILES comes first, the peptide text is derived from it. Bridges are numbered along the chain shown (N, C = ends). [ ]: non-standard residue; d: D form. The star is where a group is joined. ξ: configuration not given here. ξOrn(4,5-diOH) = O=C(C(CC(O)C(O)N[*:3])N[*:1])[*:2]; ξhTyr(βξ-OH,γξ-OH) = NC(C(=O)O)C(O)C(O)c1ccc(O)cc1; ξPro(3ξ-OH,4ξ-Me) = CC1CNC(C(=O)O)C1O; X1 = CCCCC/C=C/C/C=C\CCCCCCCC(=O)*; Hyp = O=C(O)[CH]1C[CH](O)CN1
Numbers only, in %.

Cc1ccc(NCCN(C)C)c2c(=O)c3ccc(O)cc3sc12
98.2
NC1CCCCC1N.O=S(=O)([O-])CCCN1CCOCC1.O=S(=O)([O-])CCCN1CCOCC1.[Pt+4]
98.6
O=C(O)Cc1cccc2cc3c(ccc4ccccc43)cc12
93.3
CC(C)SC(=S)Nc1cc(Cl)c(Cl)cc1Cl
98.9
CCCCC/C=C/C/C=C\CCCCCCCC(=O)NC1CC(O)C(O)NC(=O)C2C(O)C(C)CN2C(=O)C(C(C)O)NC(=O)C(C(O)C(O)c2ccc(O)cc2)NC(=O)C2CC(O)CN2C(=O)C(C(C)O)NC1=O (stereo not drawn) (X1-[ξOrn(4,5-diOH)]T[Hyp][ξhTyr(βξ-OH,γξ-OH)]T[ξPro(3ξ-OH,4ξ-Me)]; lactam 1-C; configuration not given here)
89.9

Okay, here is my list. What is growth inhibition for each of these?
1. OCCSCc1cc(Cl)cc(Cl)c1O
2. CC(C)(C)CC(C)(C)NCc1cc(Cl)cc(Cc2cc(Cl)ccc2O)c1O
3. CC(C)n1nnc2ccccc2c1=Nc1ccccc1
4. Nc1ccc(N)c2c1C(=O)c1ccccc1C2=O
5. Cc1cc2c(C(C)C)c(O)c(O)c3coc(/c1=c1/c(C)cc4c(C(C)C)c(=O)c(=O)c5coc1c45)c32

Reply text:
1. 78
2. 20.4
3. 95.5
4. 31.3
5. 98.5

Okay, here is my list. What is growth inhibition for each of these?
1. CCC(C)(O)Cc1cnccn1 (stereo unspecified)
2. O=C(CCCSCCCC(=O)NNc1ccccc1)NNc1ccccc1
3. Oc1cc(Cl)cc2c1-c1ccc(Cl)cc1C2O (stereo unspecified)

Reply text:
1. 12.1
2. 96.5
3. 93.8

Okay, here is my list. What is growth inhibition for each of these?
1. Cc1cc(Nc2ccc(O)c(CN3CCN(Cc4cc(Nc5cc(C)nc(N)n5)ccc4O)CC3)c2)nc(N)n1
2. Oc1ccc2ccccc2c1I
3. CCC(c1ccc(Cl)cc1)C(C#N)c1ccc(Cl)cc1 (stereo unspecified)

Reply text:
1: 95.4; 2: 91.7; 3: 41.8

Okay, here is my list. What is growth inhibition for each of these?
1. CN(C)CCCNc1c2ccccc2nc2ccc([N+](=O)[O-])cc12
2. O=C(/C(=C\c1ccccc1)c1ccccc1)c1ccc(Br)cc1

Reply text:
1: 39.5; 2: 11.8
